Data origin, for the record: patent US10961270B2

Each record here notes measured EC50.
System: STING pathway (NFκB pathway reporter, THP1-Dual cells)
TEST: STING pathway activation, NFκB pathway secreted embryonic alkaline phosphatase (SEAP) reporter in THP1-Dual cells
Format: cell-based
CONDITION_SUMMARY: Homo sapiens, THP1-Dual, QUANTI-Blue, 620 nm, 24-hour and 48-hour plates prepared, duration not given
Protocol: STING pathway activation by the compounds described herein was measured using THP1-Dual™ cells. […] THP1 Dual™ cells (obtained from Invivogen) are maintained in a cell growth medium that includes Roswell Park Memorial Institute medium (RPMI), 10% fetal calf serum (FCS), 100 U/ml Pen/Strep, 2 mM L-glut, 10 mM Hepes, and 1 mM sodium pyruvate. […] Cells were then counted and evaluated for viability by trypan blue exclusion assay. […]
MEASURE_NAME: EC50

1. Nc1ncnc2c1ncn2[C@@H]1O[C@@H]2COP(=O)(S)N[C@H]3[C@@H](O)[C@H](n4cnc5c(N)ncnc54)O[C@@H]3COP(=O)(O)N[C@H]2[C@H]1O (single isomer, unassigned) : 10 to 49 µM
2. Nc1nc2c(ncn2[C@@H]2O[C@@H]3COP(=O)(S)N[C@H]4[C@@H](O)[C@H](n5cnc6c(=O)[nH]c(N)nc65)O[C@@H]4COP(=O)(O)N[C@H]3[C@H]2O)c(=O)[nH]1 (single isomer, unassigned) : 1 to 10 µM
3. Nc1ncnc2c1ncn2[C@@H]1O[C@@H]2COP(=O)(O)N[C@H]3[C@@H](F)[C@H](n4cnc5c(N)ncnc54)O[C@@H]3COP(=O)(O)N[C@H]2[C@H]1F : 50 to 100 µM
4. Nc1ncnc2c1ncn2[C@@H]1O[C@@H]2COP(=O)(O)N[C@H]3[C@@H](O)[C@H](n4cnc5c(N)ncnc54)O[C@@H]3COP(=O)(O)N[C@H]2[C@H]1O : 1 to 10 µM
5. Nc1nc2c(ncn2[C@@H]2O[C@@H]3COP(=O)(O)N[C@H]4[C@@H](O)[C@H](n5cnc6c(=O)[nH]c(N)nc65)O[C@@H]4COP(=O)(O)N[C@H]3[C@H]2O)c(=O)[nH]1 : 10 to 49 µM
